# Tested on: MS2 coat protein
# PROCEDURE_TEXT: apparent KD of MS2 coat protein; designed switch direction (-1 OFF switch, 1 ON switch): -1; higher = weaker reporter binding
# PROTOCOL_CONDITIONS: Eterna round: R95; input ligand: none
Label rule met when apparent KD of MS2 coat protein is at or above 70 nM; anything below gets rule not met.

Worked set:
CUGUAACGAGCGUGAGCCUACAUGAGGAUCACCCAUGUGCUCGUCUUAUAACGUACUGUCACGUUAGUGAUAGUGCG [Sensor v3, turn-off variant 1 (MOD of Eli's v1-13 v.3)] (puzzle: Sensor v3, turn-off variant 1): rule met
AGUACUAACACGAAAGUGUUAGUACAAUAAGCUUGUGAAACAUGAGGAUCACCCAUGUCCUCCUAAGCUCGUCUUAU [salish99_TOv2_r3_049] (puzzle: Sensor v3, turn-off variant 2): rule not met
GAAAAGCUAGGAUAUACAUGAGGAUCACCCAUGUAAGGUCGCUUCUUAUAUAGGGCAUGUAGAAGGAGCAAAGA [Eneriner] (puzzle: Exclusion 3): rule not met
AAGAAACAUGAGGAUCACCCAUGUGAGGAUAUGAAAAAGAAAAUAAAAUAAAUAAUAAUCAGAAGGCACAAAGG [Mat - Mod of Hog D6] (puzzle: Exclusion 1): rule not met

Is reported apparent KD of MS2 coat protein greater than or equal to 70 nM here: AAAAUGGUCUAGGAUAUGACAAAUCUGAGCACGUCAGAAGGAGACACAUGAGGAUCACCCAUGUGGGUGCGAAA [Erteedza] (puzzle: Exclusion 6)
rule not met

For this sequence, is measured apparent KD of MS2 coat protein 70 nM or higher? AGUAGUUGUUUCCGUUCUUACAUGAGGAUCACCCAUGUUUCUUGUCGUGCUCGCGUUGCUCGUCAGACUACCAGUUG [salish99_TOv1_r3_061] (puzzle: Sensor v3, turn-off variant 1)
rule met

Could you tell me if the measured apparent KD of MS2 coat protein of AAUACACAUGAGGAUCACCCAUGUCAGGAUAUGCGCAGACAGACAGACAGACAGACGAGCAGAAGGGAUAGGAA [Excls1-IV] (puzzle: Exclusion 1) reaches 70 nM or more?
rule not met

Determine whether measured apparent KD of MS2 coat protein meets or exceeds 70 nM for AAUAACAGGCCGAUCCUAAACAUGAGGAUCACCCAUGUGCUCGUCUUGUAAAGUACUAUCACGAAAGUGAUAGUACA [Sensor v3, turn-off variant 1 (MOD of Eli's v1-59 v.2 )] (puzzle: Sensor v3, turn-off variant 1)
rule not met

# bool: apparent KD of MS2 coat protein of AGUAGUUGUUUCCGUUCUUACAUGAGGAUCACCCAUGUUUCUUGUCGUGCUCGCGUUGCUCGUCAGACUUCCUGUUG [salish99_TOv1_r3_063] (puzzle: Sensor v3, turn-off variant 1) >= 70 nM
rule met

====

# Test system: K4 kissing-loop RNA reporter;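 note: bound reporter read as fluorescence of individual clusters on recovered sequencing chips by microscopy, with normalized cluster intensities fitted with a binding model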
# PROCEDURE_TEXT: apparent KD of K4 kissing-loop reporter; higher = weaker reporter binding
# PROTOCOL_CONDITIONS: Eterna round: R107; input ligand: tryptophan 2.4 mM
PARAMETER_MEASURED: apparent KD of K4 kissing-loop reporter (nM)
Numbers only, in nM.

These recorded examples may help you get a feel for the data.
AAGUGAUGUUGUAGUGAUGUUGUGAUGUUGCAGGAUAUAUAGUGAUGUAGAAGGGUAUGUACUUAUUUUUUAUUUGAGUUAUGUU [mmvmmullin]: 57.2
UAUACUAGACAAGAGAGAAUUCUCUCAAGAGAGGAUAUCCGAAUUCGGAGAAGGCUCUCUAAGUGAUGUUUGGAAUAGUCUAGAA [AK5 SS FMN A]: 500
AAUAACUUGCAGUGAUGUUGCAAGAAAGCUCAGGAUAUCAGGAAACUGAGAAGGGAGCAUCCUGAGCAAACAUCACAACUUAGGA [[K1]-[K2]-[F1]-[F2]-[F]'-[K]'-[F]''_Design2]: 361

# batch size: 3; output apparent KD of K4 kissing-loop reporter per entry
1. UGUUAUGUAUCAGGAUAUUAGUGAUGUUUGUUUAUGUUAGUGAUGUUGAUAUUUGUUUUAUGUAUUUAAGAAGGGAUUGAGAAGU [ffcfxmullin]
2. AGACUACCACACUGUCAAUAGACAGUGAACUAGGAUAUGCUGAUAAGCAGAAGGAGUGAUGUUCCGAGGUAGUCAAUAAAAUAAU [FmnAX 13 G66]
3. AAUGUGCAGGGAAGGAGCGUAGUCCAGUGCUGUUGGAGUUAAAUACCAGUGAUGUUGGUUAUACAGGUAGGUCGCCCUAAAGCGC [whbob_Ex_Arginine_B_2th160]

1: 49.3; 2: 289; 3: 129

====

# Test system: MS2 coat protein
# PROCEDURE_TEXT: apparent KD of MS2 coat protein; designed switch direction (-1 OFF switch, 1 ON switch): -1; higher = weaker reporter binding
# PROTOCOL_CONDITIONS: Eterna round: R95; input ligand: microRNA oligo, concentration not stated
Provide the reported apparent KD of MS2 coat protein of each item.
Give bare numbers, in nM.

The examples below pair each entry with its known result.
AAGUAUAGAGGAUAUAGUGAGUACUACAUGAGGAUCACCCAUGUUCUUCAAAGCGUACUUCUAGAAGGCUGUUAAA [EX-5 Malc#17] (puzzle: Exclusion 5): 263
GAAAAGGUAGGAUAUACGAAAAAAAAGGGUAGAAAAAAAUCACAUGAGGAUCACCCAUGUAGAAGGACCAAAAG [salish99_ex2_r3_072] (puzzle: Exclusion 2): 25
AACAAACAUGAGGAUCACCCAUGUCAGGAUAUGGCGGCUAGUGUGCCACCGUACACUACCAGAAGGGACUGGGU [Diedtiis] (puzzle: Exclusion 1): 111
AAAACACAUGAGGAUCACCCAUGUGAGGAUAUGUCCAUAUUCGGCAAAUCGGAUAUGGACAGAAGGCACAUAAA [JR_Exclusion1_Sub014] (puzzle: Exclusion 1): 48.9
GCUCUGCGAGGAUAUACAUGAGGAUCACCCAUGUGCGAGUUACUUGUGAGGUCGGUUGGUAGAAGGCGCGGAGG [Mat - Exclusion 3 - Mod of JL D100] (puzzle: Exclusion 3): 77.5
GGAAGGUCAGGAUAUGCGAGGGAGUGGGAAAUAGGAUGGUAGCAGAAGGGACAUGAGGAUCACCCAUGUUAGGA [JR_Exclu4_Sub0101] (puzzle: Exclusion 4): 28
AAGUACCGUCACGAUAGUGAUGGUACAACAAGCAUGUAAACAUGAGGAUCACCCAUGUCCUCAAUUGCUCGUCUUAU [Sensor 3 - 68] (puzzle: Sensor v3, turn-off variant 2): 570
GUUAAACAUGAGGAUCACCCAUGUAAGGAUAUGCUGCGGUCGAGAUGAAGUGACUGCAGCAGAAGGUACAAAUG [Mat - Mod of JL D60] (puzzle: Exclusion 1): 127
UGAAUGUGAGGAUAUGGUGAGUAGUGCCAGAGCGCUGCUCACCAGAAGGCACAUGAGGAUCACCCAUGUACUUG [Mat - Exclusion 4 - Mod of JL - D18] (puzzle: Exclusion 4): 47.8
AAGGUGUUAGGAUAUCGGAGGUUGAGGCAGACGGGAAUUUUCGAGAAGGAACAUGAGGAUCACCCAUGUAGUAG [JR_Exclu4_Sub038] (puzzle: Exclusion 4): 22.7

For the 3 sequences below, give their apparent KD of MS2 coat protein values.
1. UAAUUAAAUGUGAGGAUAUGCUGGUCCUUGGAUCAGCAGAAGGCACAUGAGGAUCACCCAUGUAAUUUAUUUAU [Mat - Exclusion 4 - JL Mod - D59] (puzzle: Brourd's mod of Exclusion 4)
2. CCAUCGAGUGUGAGGAUAUGCUGUUCCUAAGAGCAGCAGAAGGCACAUGAGGAUCACCCAUGUGGAUACGGUGG [Mat - Exclusion 4 - JL Mod - D81] (puzzle: Brourd's mod of Exclusion 4)
3. CAGACACAUGAGGAUCACCCAUGUGAGGAUAUGCGUACGUUGUCCGUAGGCGACGUGCGCAGAAGGCGCAAAGG [JL-ex1-3.10 Eli mod] (puzzle: Exclusion 1)

1: 54.3; 2: 29.2; 3: 67

====

# Test system: MS2 coat protein
# PROCEDURE_TEXT: apparent KD of MS2 coat protein; designed switch direction (-1 OFF switch, 1 ON switch): 1; higher = weaker reporter binding
# PROTOCOL_CONDITIONS: Eterna round: R95; input ligand: FMN 200 uM
Would you kindly list apparent KD of MS2 coat protein for each of these sequences?
Dear colleague, please send the value followed by its unit.

Take a look at these entries with their results.
CGUUCAUACUCAGGACGGAGAGUAGAGGAACAUGAGGAUCACCCAUGUAUGAGCUUUUUGCUCGUCAUGAACAGGAG [JR_SHM208a_Sub011] (puzzle: Sensor for hsa-mir-208a): 0.103 µM
AGUCCAGCCUGAGCUGGACAAAAGCAUGUACAUGAGGAUCACCCAUGUUCAUGUACAAGCUUUUUGCUCGUCUUAUA [salish99_208a_r3_043] (puzzle: Sensor for hsa-mir-208a): 0.528 µM

Now examine the next entry.
Request body: readout apparent KD of MS2 coat protein, system MS2 coat protein, query AGUCCAGCCUGAGCUGGACAGAAGCAUGUACAUGAGGAUCACCCAUGUCAUGUACAAGCUUUUUGCUCGUCUUAAUA [Zipper 49 - 3] (puzzle: Sensor for hsa-mir-208a) . Return the value.
0.459 µM
